The origin of these recorded values is PubChem BioAssay (NCATS).

- experiment description: Quantitative High-Throughput drug screen in 47 multiple myeloma cell lines against the NCATS MIPE library collection: RPMI8226_ATCC cell viability assay (AID 1919871); further: nearly all actives have a fitted effect of over 30% in size
- stated conditions: RPMI8226 myeloma viability, CellTiter-Glo ATP luminescence, 48 h; series mostly up to 45.8 µM
Results filed as inconclusive are left out. Calls of active or inactive are those of the source. The call rests on the fitted dose curve; in most records, active means well fitted cell-killing curve with a large enough effect; inconclusive means small, poorly fitted or top-dose-only effect, or effect the other way; inactive means no such curve, though single readings can be large or run the other way.
Pick from active, inactive when you respond.

Task: Field: outcome | Entry: COc1cc2c(cc1-c1c(C)noc1C)ncc1[nH]c(=O)n([C@H](C)c3ccccn3)c12
Output: active

Task: Please let me know the test result on file for C[C@@H](Oc1cc(-c2cnn(C3CCNCC3)c2)cnc1N)c1c(Cl)ccc(F)c1Cl .
Output: active

Task: Returns: the outcome recorded for O=c1c2ccccc2nc2n1CCc1c-2[nH]c2ccccc12 in this assay.
Output: inactive

Task: What classification did CC(C)(O)c1cc2nc(-c3cnc(N)nc3)nc(N3CCOCC3)c2s1 end up with in this test?
Output: active

Task: Kindly provide the recorded test outcome for the following molecule: COc1ccc(F)c(F)c1C(=O)c1cnc(NC2CCN(S(C)(=O)=O)CC2)nc1N
Output: active

Task: What outcome does the record of this test show for NC(=O)c1cccc2cn(-c3ccc([C@@H]4CCCNC4)cc3)nc12 ?
Output: inactive

Task: Dear all, I need the recorded test outcome for Cc1nc2ccc(CN(C)c3ccc(C(=O)N[C@@H](CCC(=O)O)C(=O)O)s3)cc2c(=O)[nH]1 , thank you.
Output: inactive

Task: What did this assay record as the result for Clc1ccc2ncc(-c3cccc(NC4CNC4)n3)n2c1 ?
Output: active

Task: Hi, sorry to bother you, what did the test record for CC[C@@H]1C(=O)N(C)c2cnc(Nc3ccc(C(=O)NC4CCN(C)CC4)cc3OC)nc2N1C1CCCC1 ?
Output: active

Task: Tell me the recorded outcome of this test for COc1ccc2c(OCc3nnc4ccc(-c5ccccc5)nn34)ccnc2c1 .
Output: inactive

Task: Could you check what this test reported for COc1cccc(Nc2c(C(N)=O)cnc3c(C)cc(S(=O)(=O)c4cccc(C(=O)N(C)C)c4)cc23)c1 ?
Output: inactive

Task: In this assay, the call recorded for CC1(C)CCC(c2ccc(Cl)cc2)=C(CN2CCN(c3ccc(C(=O)NS(=O)(=O)c4ccc(N[C@H](CCN5CCOCC5)CSc5ccccc5)c(S(=O)(=O)C(F)(F)F)c4)cc3)CC2)C1 was what?
Output: active

Task: // param item: CCc1c2c(nc3ccc(O)cc13)-c1cc3c(c(=O)n1C2)COC(=O)[C@]3(O)CC ; yields the recorded call
Output: active

Task: Give the logged outcome of this assay for the following molecule: COc1cc2c(Oc3ccc(-c4cnc(Nc5ccc(F)cc5)n(C)c4=O)cc3F)ccnc2cc1OCCCN1CCOCC1
Output: active

Task: Can you look up the reported call for COc1cc2c(Oc3ccc(NC(=O)C4(C(=O)Nc5ccc(F)cc5)CC4)cc3F)ccnc2cc1OCCCN1CCOCC1 for me?
Output: active

Task: Per the records of this test, what outcome belongs to Nc1ncnc2c1c(-c1cnc3[nH]ccc3c1)nn2C1CCCC1 ?
Output: active

Task: For Cn1cc(-c2ccncc2)c(-c2ccc(OCc3ccc4ccccc4n3)cc2)n1 , which call appears in the assay record?
Output: active

Task: What was the test verdict on CN(C)CC(C)(C)CNc1nn2c(-c3ccccc3)nnc2cc1C1CCC1 ?
Output: inactive

Task: # outcome recorded in this test, key = Cc1cc(N2CCOCC2)cc2[nH]c(-c3c(NC[C@@H](O)c4cccc(Cl)c4)cc[nH]c3=O)nc12
Output: active
